- Experimental system: Fuc(a1-2)[GalNAc(a1-3)]Gal(b1-4)GlcNAc(b1-3)Gal(b1-4)GlcNAc
- Test details: glycan array binding signal (z-score within array); higher = stronger binding
- Condition details: glycan notation: IUPAC condensed, linker removed
The entries come from a sample that favours the strongest signals as a whole.
Measured attribute: glycan array binding signal (z-score)

Fill in: glycan array binding signal (z-score) of MXA PilAct-eGFP (Myxococcus xanthus), Q59589 (protein) MRVSRFNPRNRGFTLIELMIVVAIIGILAAIAIPNFIKFQARSKQSEAKTNLKALYTAQKSFFSEKDRYSDFANEIGFAPERGNRYGYRVSAAAGDCEVRNAADLPVPAAGVPCISNDSFRFGANSAIDDPTPVVARFVPQGAAGWNTTLGVQPTIADCPNCNFFAGARGNADNEATFDDWVIAGFEGSGQVGPCSEAGNVASGTPYNTRNDVACDGAAQ is ___
-0.546

Fill in: glycan array binding signal (z-score) of MAL-II (Maackia amurensis), P93248 (protein) ATSNSKPTQVLLATFLTFFFLLLNNVNSSDELSFTINNFVPNEADLLFQGEASVSSTGVLQLTRVENGQPQQYSVGRALYAAPVRIWDNTTGSVASFSTSFTFVVKAPNPTITSDGLAFFLAPPDSQIPSGRVSKYLGLFNNSNSDSSNQIVAVEFDTYFGHSYDPWDPNYRHIGIDVNGIESIKTVQWDWINGGVAFATITYLAPNKTLIASLVYPSNQTSFIVAASVDLKEILPEWVRVGFSAATGYPTQVETHDVLSWSFTSTLEANSDAATENNVHIARYTA is ___
-0.177

Fill in: glycan array binding signal (z-score) of LSectin (Mus musculus), Q8BNX1 (protein) MNTGEYNKLGSAIEEVSRGQLGRWECYKQRLFFLVLALLVATVLWALILSTLLSSASSKLRVLLSHQDLLRTNASEQKMTLSSLKDDIGACRNCCSVTKAQLQTTLAEFKDIQAKLMEQESILKELQERVTQDLAKASRDRENIRSELFQALEAVKRQNSSCEQCPPSWLPFQGSCYYFSETQATWDTAQSYCGGQGAHLVIVRGLNEQGFLSQHTRGRGYWLGLRAVRHLNKIQGYRWVDGASLNFSHWNSGEPNDSRGHEDCIMMLHSGLWNDAPCTNERDGWICEKRSSCY is ___
-0.185

Fill in: glycan array binding signal (z-score) of AAL (Agrocybe aegerita), Q6WY08 (protein) MQGVNIYNISAGTSVDLAAPVTTGDIVTFFSSALNLNAGAGNPNNTTLNLFAENGAYLLHIAFRLQENVIIFNSRQPDGPWLVEQRVSDVANQFAGIDGKAMVTVFDHGDKYQVVINEKTVIQYTKQISGLTLSLSYNATEETSIFSTVVEAVTYTGLALEHHHHHH is ___
-0.112

Fill in: glycan array binding signal (z-score) of rCNL (Clitocybe nebularis), B2ZRS9 (protein) SITPGTYNITNVAYTNRLIDLTGSNPAENTLIIGHHLNKTPSGYGNQQWTLVQLPHTTIYTMQAVNPQSYVRVRDDNLVDGAALVGSQQPTPVSIESAGNSGQFRIKIPNLGLALTLPSDANSTPIVLGEVDETSTNQLWAFESVSAV is ___
3.46
